- tested-on: UniProt P56817
- Sequence (P56817 whole entry): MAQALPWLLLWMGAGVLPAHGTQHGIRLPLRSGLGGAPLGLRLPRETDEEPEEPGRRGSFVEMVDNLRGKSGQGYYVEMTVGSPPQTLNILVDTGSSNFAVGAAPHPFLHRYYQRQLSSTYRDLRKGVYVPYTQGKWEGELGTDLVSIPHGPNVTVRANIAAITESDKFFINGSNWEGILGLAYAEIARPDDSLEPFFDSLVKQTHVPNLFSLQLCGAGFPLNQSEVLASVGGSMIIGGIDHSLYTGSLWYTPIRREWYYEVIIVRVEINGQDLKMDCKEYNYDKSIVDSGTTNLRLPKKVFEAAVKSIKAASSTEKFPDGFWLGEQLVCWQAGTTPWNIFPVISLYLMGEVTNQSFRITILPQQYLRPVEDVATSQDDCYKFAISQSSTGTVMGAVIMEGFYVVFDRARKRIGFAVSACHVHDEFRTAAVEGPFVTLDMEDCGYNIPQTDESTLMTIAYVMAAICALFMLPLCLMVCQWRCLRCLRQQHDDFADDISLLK
- assay-notes: Inhibition of human recombinant BACE1 using methoxycoumarin-Ser-Glu-Val-Asn-Leu-Asp-Ala-Glu-Phe-Lys-dinitrophenyl as substrate preincubated for 1 hr by FRET assay
- condition-summary: read-out: IC50
Threshold check on IC50: strictly below 1 µM is label 1; on or above 1 µM is label 0.

[Q] In the record for `CC1=C[C@H]2Cc3nc4cc(Cl)ccc4c(N)c3[C@@H](C1)C2.Cl` , is IC50 less than 1 µM?
[A] label 0

[Q] In the record for CC1=CC2Cc3nc4cc(Cl)ccc4c(NCc4ccc(CNC(=O)c5cc(O)c6c(c5)C(=O)c5cccc(O)c5C6=O)cc4)c3C(C1)C2.Cl (racemic) , is IC50 less than 1 µM?
[A] label 0

[Q] In the record for CC1=CC2Cc3nc4cc(Cl)ccc4c(NCCCCCCCCCCCNC(=O)c4cc(O)c5c(c4)C(=O)c4cccc(O)c4C5=O)c3C(C1)C2.Cl (racemic) , is IC50 less than 1 µM?
[A] label 0

[Q] In the record for CC1=CC2Cc3nc4cc(Cl)ccc4c(NCCCCCCCCCCNC(=O)c4cc(O)c5c(c4)C(=O)c4cccc(O)c4C5=O)c3C(C1)C2.Cl (racemic) , is IC50 less than 1 µM?
[A] label 0

[Q] In the record for CC1=CC2Cc3nc4cc(Cl)ccc4c(NCCCCCCCCCNC(=O)c4cc(O)c5c(c4)C(=O)c4cccc(O)c4C5=O)c3C(C1)C2.Cl (racemic) , is IC50 less than 1 µM?
[A] label 1

[Q] In the record for `CC1=C[C@@H]2Cc3nc4cc(Cl)ccc4c(N)c3[C@H](C1)C2` , is IC50 less than 1 µM?
[A] label 0
